Hey, just so you know, these numbers are from patent US8501750B2.

TARGET_OF_ASSAY: UniProt:P30556
Sequence (P30556 whole entry): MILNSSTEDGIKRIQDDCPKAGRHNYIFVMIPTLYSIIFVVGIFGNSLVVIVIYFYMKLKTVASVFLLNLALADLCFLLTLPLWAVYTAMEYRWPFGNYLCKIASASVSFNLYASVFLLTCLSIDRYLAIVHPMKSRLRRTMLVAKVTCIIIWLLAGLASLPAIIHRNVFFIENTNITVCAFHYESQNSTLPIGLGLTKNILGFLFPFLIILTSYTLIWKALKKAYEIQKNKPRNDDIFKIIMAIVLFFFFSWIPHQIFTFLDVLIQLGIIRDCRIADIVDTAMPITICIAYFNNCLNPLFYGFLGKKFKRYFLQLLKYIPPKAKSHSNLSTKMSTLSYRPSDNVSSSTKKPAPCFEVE
RUN_DESCRIPTION: AT1 receptor binding inhibitory action
EXPERIMENTAL_READOUT: IC50 (nM)

CCc1cc2c(=O)n(CC(C)(C)c3ccccc3)c(=O)n(Cc3ccc(-c4ccccc4-c4noc(=O)[nH]4)cc3)c2s1 [Ex. 225] = 1.6

P. CCc1cc2c(=O)n(CC3(C)COC3)c(=O)n(Cc3ccc(-c4ccccc4-c4noc(=O)[nH]4)cc3)c2s1 [Ex. 144]
Q. CCc1cc2c(=O)n(CCc3ccc(F)cc3)c(=O)n(Cc3ccc(-c4ccccc4-c4noc(=O)[nH]4)cc3)c2s1 [Example 56]
Inquiry: Between P and Q , which one has the lower reported IC50 value? The response must carry the label of the picked entry.
Reply text: Q
(Q: 0.34 nM, P: 1.7 nM)
